Molecular target: Scytalone dehydratase (Magnaporthe oryzae (strain 70-15 / FGSC 8958) (Rice blast fungus)(Pyricularia oryzae), UniProt P56221)
Sequence (P56221 whole entry): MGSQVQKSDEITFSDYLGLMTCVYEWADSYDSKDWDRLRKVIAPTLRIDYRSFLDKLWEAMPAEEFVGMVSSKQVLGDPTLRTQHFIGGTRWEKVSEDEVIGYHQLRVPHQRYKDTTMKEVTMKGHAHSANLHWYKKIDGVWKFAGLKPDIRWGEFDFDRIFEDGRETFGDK
Values of Ki strictly less than 0.03 nM map to fulfilled, and values of at least 0.03 nM map to not fulfilled.

>  <compound>
CC(C)C(C#N)C(=O)N[C@H](C)COc1cc(F)ccc1F (some centres undefined)

>  <label>
not fulfilled

$$$$
>  <compound>
CCC(C#N)C(=O)N[C@H](C)[C@@H](Oc1cc(Br)ccc1C#N)c1ccccc1 (some centres undefined)

>  <label>
not fulfilled

$$$$
>  <compound>
CC(C)C(C#N)C(=O)N[C@H](C)[C@@H](Oc1cc(F)ccc1F)c1ccccc1 (some centres undefined)

>  <label>
not fulfilled

$$$$
>  <compound>
CCC(C#N)C(=O)N[C@H](C)[C@@H](Oc1cc(F)ccc1F)c1ccccc1 (some centres undefined)

>  <label>
fulfilled

$$$$
>  <compound>
CCC(C#N)C(=O)N[C@H](C)[C@@H](Oc1ccccc1C#N)c1ccccc1 (some centres undefined)

>  <label>
not fulfilled

$$$$
>  <compound>
CCC(C#N)C(=O)N[C@H](C)[C@@H](Oc1cc(F)ccc1C#N)c1ccccc1 (some centres undefined)

>  <label>
fulfilled

$$$$
>  <compound>
CC(C)C(C#N)C(=O)N[C@H](C)[C@@H](Oc1cc(F)ccc1C#N)c1ccccc1 (some centres undefined)

>  <label>
not fulfilled

$$$$
>  <compound>
C[C@@H](NC(=O)C(C#N)C(C)(C)C)[C@@H](Oc1ccccc1C#N)c1ccccc1 (some centres undefined)

>  <label>
not fulfilled

$$$$
>  <compound>
C[C@H](COc1cc(F)ccc1F)NC(=O)C(C#N)C1CC1 (some centres undefined)

>  <label>
not fulfilled

$$$$
>  <compound>
C[C@@H](NC(=O)C(C#N)C1CC1)[C@@H](Oc1cc(F)ccc1F)c1ccccc1 (some centres undefined)

>  <label>
fulfilled

$$$$
>  <compound>
CCC(C#N)C(=O)N[C@H](C)[C@@H](Oc1cc(Cl)ccc1C#N)c1ccccc1 (some centres undefined)

>  <label>
not fulfilled

$$$$
>  <compound>
CCC(C#N)C(=O)N[C@H](C)COc1cc(F)ccc1F (some centres undefined)

>  <label>
not fulfilled

$$$$
>  <compound>
CC(C)C(C#N)C(=O)N[C@H](C)[C@@H](Oc1ccccc1C#N)c1ccccc1 (some centres undefined)

>  <label>
not fulfilled

$$$$
>  <compound>
C[C@H](COc1cc(F)ccc1F)NC(=O)[C@H](C#N)C(C)(C)C

>  <label>
fulfilled

$$$$
